Entries and their cell viability
test system: Calu-3; test: cell viability relative to DMSO; higher = less toxic; settings: 72 h; 1 nM

molecule	outputUnit	cell viability
CSc1nc(NC2CCCC2)c([N+](=O)[O-])c(NC2CCCC2)n1	%	94.6
FC(F)(F)C(F)(F)C(F)(F)N(C(F)(F)C(F)(F)C(F)(F)F)C(F)(F)C(F)(F)C(F)(F)F	%	103
O=C(O)c1cc(O)c2c(c1)[C@H]([C@H]1c3cc(C(=O)O)cc(O)c3C(=O)c3c(O[C@@H]4O[C@H](CO)[C@@H](O)[C@H](O)[C@H]4O)cccc31)c1cccc(O[C@@H]3O[C@H](CO)[C@@H](O)[C@H](O)[C@H]3O)c1C2=O [sennoside-A]	%	95.3

----------
Measured cell viability accompanies every entry in the list below.
system: Caco-2; assay: cell viability relative to DMSO; higher = less toxic; conditions: 72 h; 10 nM
propertyLabel: cell viability (%)

compound	value
Cn1c(N2CCCCS2(=O)=O)nc(C(=O)NCc2ccc(F)cc2)c(O)c1=O	88.6
Nc1ncnc2c1ncn2[C@@H]1O[C@H](CO)[C@@H](O)[C@H]1O	100
CCCN(CCC)[C@H]1CCc2cccc(O)c2C1 [8-hydroxy-DPAT]	101
C=C1C(=O)O[C@@H]2C[C@@]3(C)CCC[C@H](C)C3=C[C@H]12	99
C[C@@H]1O[C@@H](O[C@H]2[C@H](Oc3cc(O)c4c(c3)O[C@H](c3ccc(O)cc3)CC4=O)O[C@H](CO)[C@@H](O)[C@@H]2O)[C@H](O)[C@H](O)[C@H]1O [Naringin (Naringoside)]	95.9
C=C1/C(=C\C=C2/CCC[C@]3(C)[C@@H]([C@H](C)CCCC(C)C)CC[C@@H]23)C[C@@H](O)C[C@@H]1O	98.1
C[C@@](Cc1ccc(O)c(O)c1)(NN)C(=O)O	94.4
CC(=O)NCCC(=O)N[C@@H](Cc1c[nH]cn1)C(=O)O	105
O=C(O)[C@H]1O[C@@H](Oc2cc3oc(-c4ccccc4)cc(=O)c3c(O)c2O)[C@H](O)[C@@H](O)[C@@H]1O	99
C[C@H](N[C@@H](CCc1ccccc1)C(=O)O)C(=O)N1Cc2ccccc2C[C@H]1C(=O)O	98.2
Cc1ccc2c(c1)c1c3n2CCNC3CCC1 (stereo not given)	101
CC1(C)OC(=O)C(OCC2CC2)=C1c1ccc(S(C)(=O)=O)cc1	91.8
CC(C)N1Cc2cc(S(C)(=O)=O)ccc2N(CCN2CC=C(c3c[nH]c4cc(F)ccc34)CC2)S1(=O)=O	98.8
O=C(CN1CCN(C(=O)c2ccco2)CC1)Nc1cc(C(F)(F)F)ccc1Cl	89
O=C(O)c1cc([N+](=O)[O-])ccc1NCCCc1ccccc1	87.7

----------
tested on: Vero E6; experiment: cell viability relative to DMSO; higher = less toxic; details: 72 h; 1000 nM

chemicalString	cell viability
Cn1c(N2CCCCS2(=O)=O)nc(C(=O)NCc2ccc(F)cc2)c(O)c1=O	102%
Nc1nc(Nc2ccc(S(N)(=O)=O)cc2)nn1C(=O)c1c(F)cccc1F	99.1%
CCOc1ccc(C[C@H]2NC(=O)CCSSC[C@@H](C(=O)N3CCC[C@H]3C(=O)N[C@@H](CCCN)C(=O)NCC(N)=O)NC(=O)[C@H](CC(N)=O)NC(=O)[C@H]([C@@H](C)O)NC(=O)[C@H]([C@@H](C)CC)NC2=O)cc1	102%
FC(F)(F)C(F)(F)C(F)(F)N(C(F)(F)C(F)(F)C(F)(F)F)C(F)(F)C(F)(F)C(F)(F)F	103%
COc1ccc2cc1Oc1cc3c(cc1OC)CC[N+](C)(C)[C@H]3Cc1ccc(cc1)Oc1c(OC)c(OC)cc3c1[C@@H](C2)[N+](C)(C)CC3	102%
c1ccc(-c2cnn3cc(-c4ccc(OCCN5CCOCC5)cc4)cnc23)cc1	91.4%
COc1ccccc1NC(=O)OCC1CCN(C(=O)OC(C)(C)C)CC1	99.2%
C[C@H](NC(=O)Cc1cc(F)cc(F)c1)C(=O)N[C@@H]1C(=O)N(C)c2ccccc2-c2ccccc21	102%
CCCCCCCCCCCCCCCC(=O)C(F)(F)F	102%
